target_or_test_system: huLTBP1 proTGFβ1 (Homo sapiens, UniProt P01137+Q14766)
Sequence (P01137 30-390): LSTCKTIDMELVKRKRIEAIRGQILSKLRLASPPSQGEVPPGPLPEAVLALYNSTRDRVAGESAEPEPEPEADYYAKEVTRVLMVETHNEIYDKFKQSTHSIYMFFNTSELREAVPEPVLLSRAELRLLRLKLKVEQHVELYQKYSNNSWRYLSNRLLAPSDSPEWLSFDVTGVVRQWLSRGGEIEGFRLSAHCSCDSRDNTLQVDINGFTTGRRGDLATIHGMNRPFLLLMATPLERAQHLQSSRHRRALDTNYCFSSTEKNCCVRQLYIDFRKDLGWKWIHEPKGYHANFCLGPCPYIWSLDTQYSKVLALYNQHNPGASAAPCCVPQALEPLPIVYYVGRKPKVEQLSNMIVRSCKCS
Sequence (Q14766 347-1721 limits assumed): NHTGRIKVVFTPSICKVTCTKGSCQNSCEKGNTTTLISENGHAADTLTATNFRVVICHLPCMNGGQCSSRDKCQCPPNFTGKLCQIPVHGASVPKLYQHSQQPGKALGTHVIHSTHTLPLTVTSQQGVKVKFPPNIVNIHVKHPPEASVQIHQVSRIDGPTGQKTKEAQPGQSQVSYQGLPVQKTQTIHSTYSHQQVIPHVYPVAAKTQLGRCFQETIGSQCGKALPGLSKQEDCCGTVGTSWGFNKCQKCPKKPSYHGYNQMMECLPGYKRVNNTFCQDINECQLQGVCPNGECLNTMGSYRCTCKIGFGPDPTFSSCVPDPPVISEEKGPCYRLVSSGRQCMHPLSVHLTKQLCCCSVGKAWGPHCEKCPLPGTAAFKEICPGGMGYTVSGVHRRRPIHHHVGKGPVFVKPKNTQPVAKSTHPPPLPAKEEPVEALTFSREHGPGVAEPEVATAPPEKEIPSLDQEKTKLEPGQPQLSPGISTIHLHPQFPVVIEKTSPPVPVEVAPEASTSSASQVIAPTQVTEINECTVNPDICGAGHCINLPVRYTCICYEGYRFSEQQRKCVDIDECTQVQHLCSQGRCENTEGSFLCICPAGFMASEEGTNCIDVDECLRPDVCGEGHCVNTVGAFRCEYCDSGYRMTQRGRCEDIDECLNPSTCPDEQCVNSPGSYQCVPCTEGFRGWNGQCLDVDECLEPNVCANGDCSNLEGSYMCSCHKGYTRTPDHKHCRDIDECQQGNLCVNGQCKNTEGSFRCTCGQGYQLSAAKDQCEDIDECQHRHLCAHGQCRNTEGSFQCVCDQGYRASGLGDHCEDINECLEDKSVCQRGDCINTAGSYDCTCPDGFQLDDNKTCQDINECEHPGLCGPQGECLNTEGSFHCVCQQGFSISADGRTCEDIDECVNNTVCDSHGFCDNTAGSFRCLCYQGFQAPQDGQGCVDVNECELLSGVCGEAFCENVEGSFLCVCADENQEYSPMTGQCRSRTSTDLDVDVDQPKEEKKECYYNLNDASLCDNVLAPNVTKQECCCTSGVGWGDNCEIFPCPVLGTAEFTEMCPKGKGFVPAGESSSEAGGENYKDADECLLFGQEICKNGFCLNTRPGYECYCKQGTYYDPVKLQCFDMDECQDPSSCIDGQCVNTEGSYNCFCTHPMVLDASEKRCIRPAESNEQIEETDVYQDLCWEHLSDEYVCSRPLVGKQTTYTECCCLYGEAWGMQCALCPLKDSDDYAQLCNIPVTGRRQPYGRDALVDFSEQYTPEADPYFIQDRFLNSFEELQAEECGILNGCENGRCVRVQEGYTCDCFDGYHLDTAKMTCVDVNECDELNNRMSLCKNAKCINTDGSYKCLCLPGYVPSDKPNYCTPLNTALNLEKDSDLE
assay_procedure: Octet (BLI) binding, IgG captured on AHC tips, antigen at 100 nM
settings: Table 9; cycle 3; IgG1-agly; 5-minute dissociation
Listed below: Hu LTBP1-proTGFβ1 Koff values for each entry.
# value in s⁻¹; strip the unit string

// Hu LTBP1-proTGFβ1 Koff lookup, key: SR-AB40: cycle 3 light chain-optimized antibody, lineage SR-AB23; CDRs SEQ ID NO: 154-159 (antibody, V domains shown) VH: QVQLVESGGGVVQPGRSLRLSCAASGFTFRSYVMHWVRQAPGKGLEWVAVISHEGSLKYYADSVKGRFTISRDNSKNTLYLQMNSLRAEDTAVYYCARPRIAARRGGFGYWGQGTLVTVSS VL: NFMLTQPHSVSESPGKTVTISCTRSSGNIDNNYVQWYQQRPGSSPTTVIYEDNQRPSGVPDRFSGSIDSSSNSASLTISGLKTEDEADYYCQSYDYSNQGVVFGGGTKLTVL
6e-05

Next:
// Hu LTBP1-proTGFβ1 Koff lookup, key: SR-AB38: cycle 3 light chain-optimized antibody, lineage SR-AB22; CDRs SEQ ID NO: 142-147 (antibody, V domains shown) VH: QVQLVESGGGVVQPGRSLRLSCAASGFTFRSYVMHWVRQAPGKGLEWVAVISHEGSLKYYADSVKGRFTISRDNSKNTLYLQMNSLRAEDTAVYYCAVPRIAARRGGFGYWGQGTLVTVSS VL: NFMLTQPHSVSESPGKTVTISCTRSSGSIDNNYVQWYQQRPGSSPTTVIYEDFIRPSGVPDRFSGSIDSSSNSASLTISGLKTEDEADYYCQSYDDDLQGVVFGGGTKLTVL
0.000117
